Test system: HT-29 human colorectal cancer cells
Test: DNA biosynthesis, [3H]-thymidine incorporation
Type: cell-based
Details: HT-29, 24-hour incubation
assay.metric: IC50 (nM)

I: COC(=O)C1CC(O)CN1S(=O)(=O)c1ccc(-n2nc(C)c3nc4nnnn4nc32)cc1 (centres unmarked)
II: COC(=O)C1CCCN1S(=O)(=O)c1ccc(-n2nc(C)c3nc4nnnn4nc32)cc1 (centres unmarked)
Among I and II , whose measured IC50 is the smaller figure? Record your answer as the label of the chosen record.
I
